Tested on: duplex structure of DNA
experiment: Melting experiments (DNA-duplex stabilization)
Type: physicochemical
experimental-conditions: versus unmodified oligonucleotide; 1 M NaCl, 10 mM sodium phosphate buffer of pH=7
Description: Appropriate oligonucleotides were dissolved in a solution containing 1 M NaCl, 10 mM sodium phosphate buffer of pH=7. UV Absorption spectra and melting experiments (absorbance vs temperature) were recorded in 1-cm path length cell by using a spectrophotometer, with a temperature controller and a programmed temperature increase rate of 1° C./min. Melting curves were recorded at 260 nm, and melting temperatures were measured at the maximum of the first derivatives of the melting curves.
Ends that are not written are not given here. Qut = N-(1,3-dihydroxybutan-2-yl)-10H-indolo[3,2-d]quinoline-11-carboxamide monomer; Pht = N-((2S,3R)-1,3-dihydroxybutan-2-yl)-2-phenylquinoline-4-carboxamide monomer; Act = N-(1,3-dihydroxybutan-2-yl)acridine-9-carboxamide monomer; code p = not defined here; Agt = not defined here
quantity-measured: ΔTm (° C.)

TTCCGGAA-p-Act-p-Pht: oligonucleotide 5′-TTCCGGAA-3′ carrying dimer Act-p-Pht at the 3′-end (DNA TTCCGGAA-{code p-Act-code p-Pht}; not fully specified; cysteine pairing not given here; reading uncertain; also: DNA oligonucleotide with 3'-Act-p-Pht dimer); +8 °C
TTCCGGAA-p-Qut-p-Qut: oligonucleotide 5′-TTCCGGAA-3′ carrying dimer Qut-p-Qut at the 3′-end (DNA TTCCGGAA-{code p-Qut-code p-Qut}; not fully specified; cysteine pairing not given here; reading uncertain; also: DNA oligonucleotide with 3'-Qut-p-Qut dimer); +13 °C
TTCCGGAA-p-Agt: oligonucleotide 5′-TTCCGGAA-3′ carrying fluorophore Agt at the 3′-end (DNA TTCCGGAA-{code p-Agt}; not fully specified; cysteine pairing not given here; reading uncertain; also: DNA oligonucleotide with 3'-phosphate-linked Agt); +12 °C
TTCCGGAA-p-Act: oligonucleotide 5′-TTCCGGAA-3′ carrying fluorophore Act at the 3′-end (DNA TTCCGGAA-{code p-Act}; not fully specified; cysteine pairing not given here; reading uncertain; also: DNA oligonucleotide with 3'-phosphate-linked Act); +12 °C
TTCCGGAA-p-Pht: oligonucleotide 5′-TTCCGGAA-3′ carrying fluorophore Pht at the 3′-end (DNA TTCCGGAA-{code p-Pht}; not fully specified; cysteine pairing not given here; reading uncertain; also: DNA oligonucleotide with 3'-phosphate-linked Pht); +6 °C
